Tested on: Wnt activity (Sp5-Luc reporter in SW480 cells)
assay-explanation: Screening assay for Wnt activity: Sp5-Luc reporter gene assay in SW480 colon carcinoma cells
Format: cell-based, human
condition-set: Homo sapiens, 36 to 48 hours
Known pEC50 of a selection of compounds
In simple prose, pEC50 is minus the logarithm base ten of a concentration in moles per litre.

Solved cases below.
Cn1cc(-c2ccc3[nH]nc(C(=O)NCC4CCC(F)(F)CC4)c3c2)cn1 = 6.25
Cn1cc(-c2ccc3[nH]nc(C(=O)NC4CCC(F)(F)CC4)c3c2)cn1 = 6.04
CN1CCC(n2cc(-c3ccc4[nH]nc(C(=O)Nc5ccc(OC(F)F)cc5)c4c3)cn2)CC1 = 5.82

# context switch: different compound, same pEC50
Noted pEC50 for `Cn1cc(-c2cc3c(C(=O)Nc4ccc(CN5CCC(F)(F)CC5)cc4)n[nH]c3cc2F)cn1` , tested on Wnt activity (Sp5-Luc reporter in SW480 cells): 5.89

---

assay-system: UniProt Q13627
assay-explanation: DYRK1A kinase assay (Ser/Thr 18 peptide Z-lyte FRET)
Format: biochemical
condition-set: read-out: EC50 (method: IC50)
endpoint: pIC50
In simple prose, pIC50 is minus the logarithm base ten of a concentration in moles per litre.

Solved cases below.
Cc1ncc(-c2cc(F)c3[nH]nc(C(=O)N[C@@H](C)C(F)(F)F)c3c2)n1C [Compound 134] = 6.32
Cc1ncc(-c2cc3c(C(=O)Nc4ccc(OC5CCN(C)CC5)cc4)n[nH]c3cc2F)s1 [Compound 163] = 8.40

Reported pIC50 ( CN1CCC(Oc2ccc(NC(=O)c3n[nH]c4c(F)cc(-c5cnn(C)c5)cc34)cc2)CC1 [Compound 152] ) = 7.42

Reported pIC50 ( Cc1cc(-c2ccc3[nH]nc(C(=O)Nc4ccc(OC5CCN(C)CC5)cc4)c3c2)sn1 [Compound 164] ) = 8.52

---

Test system: Wnt activity (Sp5-Luc reporter in SW480 cells)
assay-explanation: Screening assay for Wnt activity: Sp5-Luc reporter gene assay in SW480 colon carcinoma cells
Format: cell-based, human
condition-set: Homo sapiens, 36 to 48 hours
endpoint: pEC50
In simple prose, pEC50 is minus the logarithm base ten of a concentration in moles per litre.

Cn1cc(-c2cc3c(C(=O)Nc4ccc(OCCN5CCCC5)cc4)n[nH]c3cc2F)cn1 [Compound 155] = 6.50
Cn1cc(-c2ccc3[nH]nc(C(=O)N[C@H]4CC[C@H](CN5CCCC5)CC4)c3c2)cn1 [Compound 28] = 6.16
Cn1cc(-c2cc3c(C(=O)Nc4ccc(CN5CCCC5)cc4)n[nH]c3cc2F)cn1 [Compound 69] = 6.51
Cn1cc(-c2ccc3[nH]nc(C(=O)Nc4ccc(CN5CCCC5)cc4F)c3c2)cn1 [Compound 73] = 5.81
Cn1cc(-c2cc3c(C(=O)Nc4ccc(CN5CCC(F)CC5)cc4)n[nH]c3cc2F)cn1 [Compound 75] = 6.27
O=C(Nc1ccc(OC(F)F)cc1)c1n[nH]c2ccc(-c3cnn(CC4CCNCC4)c3)cc12 [Compound 63] = 5.03

# context switch: different molecule, same pEC50
Reported pEC50 ( CC(C)NC(=O)c1n[nH]c2ccc(-c3cnn(C4CCNCC4)c3)cc12 [Compound 7] ) = 5.59
